Where these numbers come from: ChEMBL document CHEMBL1201862

assay protocol: inhibitors of SNCA 5'UTR-driven reporter translation, confirmation, H4 neuroglioma cells, luminescence (AID 1988)
Format: functional, cell-based
Calls of active or inactive are those of the source. No stated cut-off is given here; in the data, actives have a measured EC50 and inactives only a lower limit.
Reported EC50 values for a set of compounds

Example compounds with recorded EC50:
{"compound": "Cn1nc(-c2ccc(Cl)cc2)nc2c(=O)n(C)c(=O)nc1-2", "EC50": "4.07 µM (active)"}
{"compound": "O=C(CCl)N(c1ccc(Cl)cc1)c1c[nH]c2ccccc12", "EC50": "8.46 µM (active)"}
{"compound": "CN(C1=NC(=O)C(CC(=O)Nc2ccc(Br)cc2)S1)c1ccc(O)cc1 (stereo not given)", "EC50": "23.8 µM (active)"}

Prompt: Report measured EC50; entry is "N#C/C=C1\n2c(nc3ccccc32)OC12CCCCC2"
Completion: > 120 µM (not active)

Prompt: Report measured EC50; entry is "COc1cc(OC)cc(C(=O)c2c(C)c(C#N)c3ccccn23)c1"
Completion: 2.6 µM (active)
